System: A549-mRuby cells
Assay Procedure: Drug screening: effect on cell growth (cell number day 4 / day 0)
Assay Conditions: 10 μM drug, repeat #1
Structures can show the parent of a compound that is named as a salt.
Could you please classify the records by Growth_1: number of cells at day 4 divided by number of cells at day 0 using these ranges: 0: < 4; 1: ≥ 4 and < 5; 2: ≥ 5

# Molecule, Label Class
rows = [
    ("C[C@@H]1[C@H](O)[C@@H](C)/C=C/C=C/C=C/C=C/C=C/C=C/C=C/[C@H](O[C@@H]2O[C@H](C)[C@@H](O)[C@H](N)[C@@H]2O)C[C@@H]2O[C@](O)(C[C@@H](O)C[C@@H](O)[C@H](O)CC[C@@H](O)C[C@@H](O)CC(=O)O[C@H]1C)C[C@H](O)[C@H]2C(=O)O [Amphotericin B]", 1),
]

Exercise: Class? Entry: CN(C)CCC=C1c2ccccc2CCc2ccccc21 [Amitriptyline HCl]
Key: 0

Exercise: Class? Entry: CC(CN1c2ccccc2Sc2ccccc21)N(C)C (centres unmarked) [Promethazine HCl]
Key: 0

Exercise: Class? Entry: COCCCC/C(=N\OCCN)c1ccc(C(F)(F)F)cc1 [Fluvoxamine maleate]
Key: 2

Exercise: Class? Entry: CN(C)CCC=C1c2ccccc2C=Cc2ccccc21 [Cyclobenzaprine HCl]
Key: 0

Exercise: Class? Entry: CCC(=O)O[C@H]1[C@H](O[C@@H]2[C@@H](C)[C@H](O[C@H]3C[C@@](C)(OC)[C@@H](O)[C@H](C)O3)[C@@H](C)C(=O)O[C@H](CC)[C@@](C)(O)[C@H](O)[C@@H](C)C(=O)[C@H](C)C[C@@]2(C)O)O[C@H](C)C[C@@H]1N(C)C [Erythromycin estolate]
Key: 1

Exercise: Class? Entry: O=C(Nc1ccccc1)OCC(CN1CCCCC1)OC(=O)Nc1ccccc1 (centres unmarked) [Diperodon HCl]
Key: 1

Exercise: Class? Entry: CCOC(=O)N[C@@H]1CC[C@@H]2[C@@H](C1)C[C@H]1C(=O)O[C@H](C)[C@H]1[C@H]2/C=C/c1ccc(-c2cccc(F)c2)cn1 [Vorapaxar]
Key: 1

Exercise: Class? Entry: CN1CCN(CCCN2c3ccccc3Sc3ccc(C(F)(F)F)cc32)CC1.Cl.Cl [Trifluoperazine 2HCl]
Key: 0

Exercise: Class? Entry: COc1ccc(NC(=O)c2ccc(C(=N)N(C)C)cc2)c(C(=O)Nc2ccc(Cl)cn2)c1 [Betrixaban]
Key: 2

Exercise: Class? Entry: CN1CCCCC1CCN1c2ccccc2Sc2ccc([S+](C)[O-])cc21 (centres unmarked) [Mesoridazine Besylate]
Key: 1

====

Tested on: OC43
Assay Procedure: Drug screening: OC43 nucleoprotein staining in infected A549-mRuby cells
Assay type: cell-based, human beta coronavirus OC43
Assay Conditions: Betacoronavirus 1, OC43, 96 h, 10 μM drug, MOI 0.3, 4 days; normalized to no-drug controls in the same plate; repeat #2; read-out: OC43_2: % staining of OC43 in screen repeat #2
Some molecules, each annotated with its measured activity at 10 µM.
Give the quantity in %, number only.

# Molecule, Tested On, Units Label, Observed
records = [
    ("Clc1ccc2c(c1)CCc1cccnc1C2=C1CCNCC1 [Desloratadine]", "OC43", "%", 25.4),
    ("N#Cc1ccc2[nH]cc(CCCCN3CCN(c4ccc5oc(C(N)=O)cc5c4)CC3)c2c1.O [Vilazodone HCl]", "OC43", "%", 6.7),
]

Query molecule follows.
Exercise: Given the entry CN1CCC(COc2cnc(-c3cccc(Cn4nc(-c5cccc(C#N)c5)ccc4=O)c3)nc2)CC1 [Tepotinib (EMD 1214063), Tepotinib] , what activity at 10 µM was observed with OC43?
Key: 42.6
